Target: cGMP-dependent protein kinase 2 (Homo sapiens) (UniProt Q13237);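 note: reported figure is a mean inhibition value against PRKG2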
Sequence (whole entry): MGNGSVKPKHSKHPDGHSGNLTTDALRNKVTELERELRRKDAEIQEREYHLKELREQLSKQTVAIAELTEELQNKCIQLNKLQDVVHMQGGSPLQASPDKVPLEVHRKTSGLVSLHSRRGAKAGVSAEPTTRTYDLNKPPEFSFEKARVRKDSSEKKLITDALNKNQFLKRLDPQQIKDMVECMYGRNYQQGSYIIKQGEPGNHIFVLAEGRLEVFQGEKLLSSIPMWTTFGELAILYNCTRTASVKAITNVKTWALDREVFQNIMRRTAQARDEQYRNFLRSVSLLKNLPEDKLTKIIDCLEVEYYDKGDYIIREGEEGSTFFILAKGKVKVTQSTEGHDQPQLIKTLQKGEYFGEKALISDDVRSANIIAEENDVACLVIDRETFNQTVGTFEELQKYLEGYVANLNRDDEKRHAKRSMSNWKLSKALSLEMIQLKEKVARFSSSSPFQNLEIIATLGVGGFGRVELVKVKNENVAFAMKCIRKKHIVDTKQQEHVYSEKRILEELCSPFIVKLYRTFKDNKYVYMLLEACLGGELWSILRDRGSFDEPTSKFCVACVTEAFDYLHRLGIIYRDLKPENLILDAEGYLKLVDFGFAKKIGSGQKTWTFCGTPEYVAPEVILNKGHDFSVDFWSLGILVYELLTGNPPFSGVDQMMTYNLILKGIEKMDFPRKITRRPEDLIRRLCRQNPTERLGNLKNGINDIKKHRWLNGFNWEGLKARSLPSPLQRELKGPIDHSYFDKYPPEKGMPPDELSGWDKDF
Settings: at 0.1 µM
Please use label 1 whenever inhibition is not below 2%, and label 0 whenever it is.

{"Compound": "O=C1Nc2ccc(C(=O)c3ccco3)cc2C1=Cc1cc(Cl)c(O)c(Cl)c1", "Test System": "cGMP-dependent protein kinase 2 (Homo sapiens) (UniProt Q13237)", "Assigned Label": "label 0"}

Query: State whether the measured inhibition reaches 2%, counting equality as reaching it, for Cc1cccc(-c2n[nH]cc2-c2ccc3ncccc3n2)n1
Reply: label 0

###

target: Tyrosine-protein kinase receptor UFO (Homo sapiens) (UniProt P30530); settings: at 0.1 µM;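 note: values are mean percent inhibition of AXL from the GSK PKIS screen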
Sequence (P30530 whole entry): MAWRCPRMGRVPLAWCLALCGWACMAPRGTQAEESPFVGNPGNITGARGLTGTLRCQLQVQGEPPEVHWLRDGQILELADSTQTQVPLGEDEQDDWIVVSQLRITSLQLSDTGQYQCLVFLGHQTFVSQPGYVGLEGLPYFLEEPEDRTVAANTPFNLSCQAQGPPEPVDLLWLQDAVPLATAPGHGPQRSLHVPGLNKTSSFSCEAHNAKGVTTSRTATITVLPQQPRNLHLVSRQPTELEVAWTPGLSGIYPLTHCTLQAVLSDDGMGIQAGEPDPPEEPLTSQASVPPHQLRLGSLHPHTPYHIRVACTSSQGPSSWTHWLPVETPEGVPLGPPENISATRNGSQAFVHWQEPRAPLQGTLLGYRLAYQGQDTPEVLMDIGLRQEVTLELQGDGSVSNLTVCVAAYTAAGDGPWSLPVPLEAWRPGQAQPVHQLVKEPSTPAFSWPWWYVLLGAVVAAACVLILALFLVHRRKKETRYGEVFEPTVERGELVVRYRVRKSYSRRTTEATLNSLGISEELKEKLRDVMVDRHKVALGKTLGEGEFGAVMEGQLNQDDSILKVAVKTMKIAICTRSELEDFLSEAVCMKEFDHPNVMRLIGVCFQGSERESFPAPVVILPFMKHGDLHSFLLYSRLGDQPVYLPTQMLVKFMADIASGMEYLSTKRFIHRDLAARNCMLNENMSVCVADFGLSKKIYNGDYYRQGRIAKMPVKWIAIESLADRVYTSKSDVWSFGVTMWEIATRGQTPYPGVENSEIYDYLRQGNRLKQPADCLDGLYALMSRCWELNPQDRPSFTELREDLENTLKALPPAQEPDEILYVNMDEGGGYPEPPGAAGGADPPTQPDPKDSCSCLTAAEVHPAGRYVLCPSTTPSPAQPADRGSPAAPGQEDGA
Listing: inhibition of selected compounds
Quick reminder: number only, in %, skip the unit.

The examples below pair each entry with its known result.
{"Compound": "O=C1NC(=O)C(c2cccc(Cl)c2)=C1Nc1ccc(O)c(Cl)c1", "inhibition / %": 0.38}
{"Compound": "COc1cc2ncn(-c3cc(O[C@H](C)c4ccccc4Cl)c(C(N)=O)s3)c2cc1OC", "inhibition / %": -0.27}
{"Compound": "Fc1cccc(COc2ccc(Nc3ncnc4cc(-c5ccc[nH]5)sc34)cc2Cl)c1", "inhibition / %": -2.49}
{"Compound": "CC1=C(C(=O)Nc2ccc3[nH]ncc3c2)C(c2ccc(F)cc2)NC(=O)N1 (stereo not given)", "inhibition / %": -2.41}
{"Compound": "O=C1NC(=O)C(N2CCc3ccccc32)=C1c1ccc(Cl)cc1", "inhibition / %": -4.63}

Query: inhibition for CC1=C(C(=O)Nc2ccc3[nH]ncc3c2)C(c2ccc3ccccc3c2)CC(=O)N1 (stereo not given) ?
Reply: -2.62

Query: What measured inhibition goes with CC(=O)Nc1cccc(C#Cc2cncnc2Nc2ccc(OCc3cccc(F)c3)c(Cl)c2)n1 ?
Reply: 7.46

Query: Param item = CCn1c(-c2nonc2N)nc2cnc(Oc3cccc(NC(=O)c4ccc(OCCN5CCOCC5)cc4)c3)cc21 ; retrieve measured inhibition.
Reply: -6.28

Query: I am curious: what inhibition value has been reported for [O-][S+]1CCN(Cc2ccc(-c3ccc4ncnc(Nc5ccc(OCc6ccccc6)c(F)c5)c4c3)o2)CC1 ?
Reply: -4.98

These entries and their values trace back to ChEMBL document CHEMBL1961873.
